src = patent US20240294914A1

- Test system: HBV genome in HEK293T cells transduced with a lentiviral vector
- Procedure Text: Base editing efficiency in Hek293-lentiHBV system (PCR amplicons sequenced on MiSeq)
- Type: cell-based, Hepatitis B virus
- Condition Notes: replicate 1, base editor Cas12b-ABE, plasmid transfection, four days
Strand notation (5' to 3'): a small letter for the sugar, then the base; units joined by * are phosphorothioate-linked, units joined directly phosphodiester-linked; [ ] holds rarer units or linkages, { } end groups; capitals alone tell only the bases. m = 2'-O-methyl; r = 2'-OH (RNA)
Each entry below lists one item and its recorded Editing Efficiency 1 (%) value.
Test Readout: Editing Efficiency 1 (%)

Molecule | Test Readout | Experimental Result
cas12b-5: guide RNA SEQ ID NO: 380 (nucleic acid) guide: mG*mU*mU*rCrUrGrUrCrUrUrUrUrGrGrUrCrArGrGrArCrArArCrCrGrUrCrUrArGrCrUrArUrArArGrUrGrCrUrGrCrArGrGrGrUrGrUrGrArGrArArArCrUrCrCrUrArUrUrGrCrUrGrGrArCrGrArUrGrUrCrUrCrUrUrArCrGrArGrGrCrArUrUrArGrCrArCrUrCrGrCrUrGrGrArUrGrUrGrUrCrUrGrCrGrGrC | Editing Efficiency 1 (%) | 0.12
cas12b-35: guide RNA SEQ ID NO: 388 (nucleic acid) guide: mG*mU*mU*rCrUrGrUrCrUrUrUrUrGrGrUrCrArGrGrArCrArArCrCrGrUrCrUrArGrCrUrArUrArArGrUrGrCrUrGrCrArGrGrGrUrGrUrGrArGrArArArCrUrCrCrUrArUrUrGrCrUrGrGrArCrGrArUrGrUrCrUrCrUrUrArCrGrArGrGrCrArUrUrArGrCrArCrCrCrCrArArGrGrUrCrUrUrArCrArUrArArGrArG | Editing Efficiency 1 (%) | 0.31
cas12b-154: guide RNA SEQ ID NO: 387 (nucleic acid) guide: mG*mU*mU*rCrUrGrUrCrUrUrUrUrGrGrUrCrArGrGrArCrArArCrCrGrUrCrUrArGrCrUrArUrArArGrUrGrCrUrGrCrArGrGrGrUrGrUrGrArGrArArArCrUrCrCrUrArUrUrGrCrUrGrGrArCrGrArUrGrUrCrUrCrUrUrArCrGrArGrGrCrArUrUrArGrCrArCrUrUrGrUrCrArArCrArArGrArArArArArCrCrCrC | Editing Efficiency 1 (%) | 16.12
cas12b-124: guide RNA SEQ ID NO: 389 (nucleic acid) guide: mG*mU*mU*rCrUrGrUrCrUrUrUrUrGrGrUrCrArGrGrArCrArArCrCrGrUrCrUrArGrCrUrArUrArArGrUrGrCrUrGrCrArGrGrGrUrGrUrGrArGrArArArCrUrCrCrUrArUrUrGrCrUrGrGrArCrGrArUrGrUrCrUrCrUrUrArCrGrArGrGrCrArUrUrArGrCrArCrCrCrGrGrGrCrArArCrGrGrGrGrUrArArArGrGrU | Editing Efficiency 1 (%) | 29.50
cas12b-127: guide RNA SEQ ID NO: 390 (nucleic acid) guide: mG*mU*mU*rCrUrGrUrCrUrUrUrUrGrGrUrCrArGrGrArCrArArCrCrGrUrCrUrArGrCrUrArUrArArGrUrGrCrUrGrCrArGrGrGrUrGrUrGrArGrArArArCrUrCrCrUrArUrUrGrCrUrGrGrArCrGrArUrGrUrCrUrCrUrUrArCrGrArGrGrCrArUrUrArGrCrArCrArCrArCrArGrArArArGrGrCrCrUrUrGrUrArArG | Editing Efficiency 1 (%) | 50.16
cas12b-11: guide RNA SEQ ID NO: 381 (nucleic acid) guide: mG*mU*mU*rCrUrGrUrCrUrUrUrUrGrGrUrCrArGrGrArCrArArCrCrGrUrCrUrArGrCrUrArUrArArGrUrGrCrUrGrCrArGrGrGrUrGrUrGrArGrArArArCrUrCrCrUrArUrUrGrCrUrGrGrArCrGrArUrGrUrCrUrCrUrUrArCrGrArGrGrCrArUrUrArGrCrArCrCrArCrCrUrGrUrArUrUrCrCrCrArUrCrCrCrArU | Editing Efficiency 1 (%) | 44.34
cas12b-30: guide RNA SEQ ID NO: 383 (nucleic acid) guide: mG*mU*mU*rCrUrGrUrCrUrUrUrUrGrGrUrCrArGrGrArCrArArCrCrGrUrCrUrArGrCrUrArUrArArGrUrGrCrUrGrCrArGrGrGrUrGrUrGrArGrArArArCrUrCrCrUrArUrUrGrCrUrGrGrArCrGrArUrGrUrCrUrCrUrUrArCrGrArGrGrCrArUrUrArGrCrArCrGrCrUrGrArCrGrCrArArCrCrCrCrCrArCrUrGrG | Editing Efficiency 1 (%) | 0.02
cas12b-122b: guide RNA SEQ ID NO: 391 (nucleic acid, sugars from the 5' end m3 r114, linkages s3 o113 (s phosphorothioate, o phosphodiester), T or U not given here) guide: GTTCTGTCTTTTGGTCAGGACAACCGTCTAGCTATAAGTGCTGCAGGGTGTGAGAAACTCCTATTGCTGGACGATGTCTCTTACGAGGCATTAGCACCACGCACGCGCTGATGGCCC | Editing Efficiency 1 (%) | 8.22
cas12b-100: guide RNA SEQ ID NO: 385 (nucleic acid) guide: mG*mU*mU*rCrUrGrUrCrUrUrUrUrGrGrUrCrArGrGrArCrArArCrCrGrUrCrUrArGrCrUrArUrArArGrUrGrCrUrGrCrArGrGrGrUrGrUrGrArGrArArArCrUrCrCrUrArUrUrGrCrUrGrGrArCrGrArUrGrUrCrUrCrUrUrArCrGrArGrGrCrArUrUrArGrCrArCrUrUrCrUrUrCrUrArGrGrGrGrArCrCrUrGrCrCrU | Editing Efficiency 1 (%) | 7.97
cas12b-147: guide RNA SEQ ID NO: 386 (nucleic acid) guide: mG*mU*mU*rCrUrGrUrCrUrUrUrUrGrGrUrCrArGrGrArCrArArCrCrGrUrCrUrArGrCrUrArUrArArGrUrGrCrUrGrCrArGrGrGrUrGrUrGrArGrArArArCrUrCrCrUrArUrUrGrCrUrGrGrArCrGrArUrGrUrCrUrCrUrUrArCrGrArGrGrCrArUrUrArGrCrArCrGrArGrGrArCrArArArCrGrGrGrCrArArCrArUrA | Editing Efficiency 1 (%) | 13.02
